Molecular target: UniProt Q9EQU3
Sequence (whole entry): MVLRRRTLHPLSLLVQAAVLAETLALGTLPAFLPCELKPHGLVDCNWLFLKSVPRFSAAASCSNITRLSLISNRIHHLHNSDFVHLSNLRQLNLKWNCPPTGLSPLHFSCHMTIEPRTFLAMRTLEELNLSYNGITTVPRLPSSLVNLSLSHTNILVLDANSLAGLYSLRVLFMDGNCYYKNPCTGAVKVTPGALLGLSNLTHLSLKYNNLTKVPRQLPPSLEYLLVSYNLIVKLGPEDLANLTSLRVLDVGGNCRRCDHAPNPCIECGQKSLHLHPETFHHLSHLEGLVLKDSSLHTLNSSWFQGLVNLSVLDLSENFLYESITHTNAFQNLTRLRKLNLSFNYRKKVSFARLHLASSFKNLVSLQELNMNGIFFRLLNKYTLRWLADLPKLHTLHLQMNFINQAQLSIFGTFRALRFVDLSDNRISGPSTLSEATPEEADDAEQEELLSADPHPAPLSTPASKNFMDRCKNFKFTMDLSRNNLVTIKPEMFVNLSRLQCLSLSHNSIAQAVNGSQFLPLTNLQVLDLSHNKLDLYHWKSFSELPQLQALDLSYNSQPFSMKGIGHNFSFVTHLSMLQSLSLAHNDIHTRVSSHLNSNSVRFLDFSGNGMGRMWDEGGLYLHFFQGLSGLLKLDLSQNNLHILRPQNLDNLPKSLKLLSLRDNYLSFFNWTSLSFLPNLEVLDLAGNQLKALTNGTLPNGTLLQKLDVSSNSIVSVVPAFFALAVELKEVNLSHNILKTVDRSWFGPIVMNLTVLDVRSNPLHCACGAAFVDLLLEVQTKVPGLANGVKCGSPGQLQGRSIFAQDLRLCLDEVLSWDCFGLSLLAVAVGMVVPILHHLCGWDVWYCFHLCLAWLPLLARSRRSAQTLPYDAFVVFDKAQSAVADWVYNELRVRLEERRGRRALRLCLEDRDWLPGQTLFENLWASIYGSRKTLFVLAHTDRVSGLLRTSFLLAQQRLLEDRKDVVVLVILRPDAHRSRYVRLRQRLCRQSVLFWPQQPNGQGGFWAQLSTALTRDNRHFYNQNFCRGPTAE
Test: Inhibition of TLR9 in BALB/c mouse BMDM assessed as downregulation of CpG-stimulated IL-6 level at 5 ug/ml preincubated for 18 hrs followed by CpG challenge measured after 24 hrs by ELISA relative to control
Calls of active or inactive are those of the source. How the calls were made is not given here.
Pick one and only one: active, inactive

- O=S(=O)(Cc1ccc(F)cc1)NCCN1CCOCC1: inactive

Please state the recorded outcome for this compound: Cc1ccc(CS(=O)(=O)CCC[N+](C)(C)C)cc1
inactive

Same question for CC[C@@H](C)NCCS(=O)(=O)Cc1ccc(Br)cc1 please.
inactive

Same question for COc1cccc(C(=O)NCCN(C)C)c1 please.
active

Same question for O=S(=O)(CCN1CCCC1)c1ccccc1 please.
inactive

Same question for CN(C)CCNS(=O)(=O)Cc1ccccc1 please.
inactive

----------
target: Toll-like receptor 4 (Mus musculus) (UniProt Q9QUK6); test: Inhibition of TLR4 in BALB/c mouse BMDM assessed as downregulation of LPS-stimulated IL-12p40 level at 5 ug/ml preincubated for 18 hrs followed by LPS challenge measured after 24 hrs by ELISA relative to control
Sequence (Q9QUK6 whole entry): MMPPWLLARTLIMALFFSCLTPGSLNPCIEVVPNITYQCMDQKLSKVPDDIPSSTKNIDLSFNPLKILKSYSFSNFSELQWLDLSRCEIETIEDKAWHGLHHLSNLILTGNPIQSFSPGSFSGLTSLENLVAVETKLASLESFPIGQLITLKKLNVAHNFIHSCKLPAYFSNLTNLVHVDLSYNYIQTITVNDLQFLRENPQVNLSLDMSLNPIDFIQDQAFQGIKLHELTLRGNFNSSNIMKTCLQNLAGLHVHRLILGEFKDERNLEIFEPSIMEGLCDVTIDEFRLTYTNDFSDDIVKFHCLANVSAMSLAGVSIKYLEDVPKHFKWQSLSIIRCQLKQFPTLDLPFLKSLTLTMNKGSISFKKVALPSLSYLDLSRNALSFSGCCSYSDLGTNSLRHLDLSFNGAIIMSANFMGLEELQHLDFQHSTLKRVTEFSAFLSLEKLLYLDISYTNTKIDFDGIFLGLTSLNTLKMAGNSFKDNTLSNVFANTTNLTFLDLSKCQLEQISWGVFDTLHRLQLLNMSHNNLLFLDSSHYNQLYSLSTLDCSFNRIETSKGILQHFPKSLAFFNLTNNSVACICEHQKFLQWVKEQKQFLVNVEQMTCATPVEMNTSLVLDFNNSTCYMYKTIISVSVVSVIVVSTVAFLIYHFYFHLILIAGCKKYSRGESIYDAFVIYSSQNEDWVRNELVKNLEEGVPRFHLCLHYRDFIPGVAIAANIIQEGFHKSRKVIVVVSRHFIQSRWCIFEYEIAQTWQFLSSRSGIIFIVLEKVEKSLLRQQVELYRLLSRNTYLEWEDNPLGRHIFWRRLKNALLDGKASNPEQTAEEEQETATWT
Active and inactive are the calls of the source. How the calls were made is not given here.
Pick one and only one: active, inactive

Some solved cases for reference:
* CN(C)CCS(=O)(=O)NCc1ccc(Br)cc1 | inactive
* O=S(=O)(Cc1ccc2ccccc2c1)NCCN1CCCC1 | inactive
* Cc1ccc(CS(=O)(=O)CCCN2CCOCC2)cc1 | inactive

Please state the recorded outcome for this molecule: CN(C)CCS(=O)(=O)Cc1cccc(F)c1
inactive

Same question for Cc1ccc(CS(=O)(=O)CCCN(C)C)cc1 please.
inactive

Same question for O=[N+]([O-])c1ccc(CNS(=O)(=O)CCN2CCCC2)cc1 please.
inactive

Same question for O=S(=O)(Cc1ccc(F)cc1)NCCN1CCCC1 please.
inactive

Same question for Cc1ccc(CS(=O)(=O)NCCN2CCCC2)cc1 please.
inactive

Same question for CN(C)CCNS(=O)(=O)Cc1ccc2ccccc2c1 please.
inactive
